Data provenance: paper PMC9774391

- STUDY TARGET: BChE (Homo sapiens)
- METHOD: biochemical
- ASSAY CONTEXT: 10^–6 M
Some compounds, each annotated with its measured inhibition at 1 µM.
All answers are understood in %, so give the number only.

1. COc1ccc2c(c1)C(=O)/C(=C/c1ccc(NC(=O)CN(C)CCN(C)C)cc1)C2: 65.9
2. COc1cc2c(cc1OC)C(=O)/C(=C/c1ccc(NC(=O)CN(C)CCCN(C)C)cc1)C2: 73.7
3. COc1ccc2c(c1)C/C(=C\c1ccc(NC(=O)CN(C)CCCN(C)C)cc1)C2=O: 71.4
4. COc1ccc2c(c1)C(=O)/C(=C/c1ccc(NC(=O)CN(C)CCCN(C)C)cc1)C2: 78.6

Give inhibition at 1 µM for COc1ccc2c(c1)C/C(=C\c1ccc(NC(=O)CN(C)CCN(C)C)cc1)C2=O
71.9

---

- STUDY TARGET: AChE (Homo sapiens)
- METHOD: biochemical
- ASSAY CONTEXT: 10^–3 M
- Protocol: According to the modified Ellman approach outlined in our team’s earlier work, the AChE and BChE inhibitory activities of the obtained compounds were evaluated.[18]−[21]
QUANTITY: inhibition at 1000 µM
Answer format: value, then unit.

As a guide, the following entries are already answered.
1. COc1ccc2c(c1)C/C(=C\c1ccc(NC(=O)CN3CCN(CCO)CC3)cc1)C2=O: 88%
2. COc1cc2c(cc1OC)C(=O)/C(=C/c1ccc(NC(=O)CN(C)CCN(C)C)cc1)C2: 91.9%
3. CCN1CCN(CC(=O)Nc2ccc(/C=C3\Cc4cc(OC)ccc4C3=O)cc2)CC1: 74.5%
4. C=CCN1CCN(CC(=O)Nc2ccc(/C=C3\Cc4cc(OC)ccc4C3=O)cc2)CC1: 61.3%
5. COc1ccc2c(c1)C/C(=C\c1ccc(NC(=O)CN(C)CCCN(C)C)cc1)C2=O: 92.5%
6. C=CCN1CCN(CC(=O)Nc2ccc(/C=C3\Cc4ccc(OC)cc4C3=O)cc2)CC1: 51%

Give inhibition at 1000 µM for C#CCN(C)CC(=O)Nc1ccc(/C=C2\Cc3ccc(OC)cc3C2=O)cc1
33.8%

Give inhibition at 1000 µM for CCN1CCN(CC(=O)Nc2ccc(/C=C3\Cc4ccc(OC)cc4C3=O)cc2)CC1
38.6%

Give inhibition at 1000 µM for COc1ccc2c(c1)C(=O)/C(=C/c1ccc(NC(=O)CN3CCN(CCN(C)C)CC3)cc1)C2
92.5%

Give inhibition at 1000 µM for CCCN(C)CC(=O)Nc1ccc(/C=C2\Cc3ccc(OC)cc3C2=O)cc1
97.2%

---

- STUDY TARGET: MAO-A (Homo sapiens)
- Sequence (P21397 1-527): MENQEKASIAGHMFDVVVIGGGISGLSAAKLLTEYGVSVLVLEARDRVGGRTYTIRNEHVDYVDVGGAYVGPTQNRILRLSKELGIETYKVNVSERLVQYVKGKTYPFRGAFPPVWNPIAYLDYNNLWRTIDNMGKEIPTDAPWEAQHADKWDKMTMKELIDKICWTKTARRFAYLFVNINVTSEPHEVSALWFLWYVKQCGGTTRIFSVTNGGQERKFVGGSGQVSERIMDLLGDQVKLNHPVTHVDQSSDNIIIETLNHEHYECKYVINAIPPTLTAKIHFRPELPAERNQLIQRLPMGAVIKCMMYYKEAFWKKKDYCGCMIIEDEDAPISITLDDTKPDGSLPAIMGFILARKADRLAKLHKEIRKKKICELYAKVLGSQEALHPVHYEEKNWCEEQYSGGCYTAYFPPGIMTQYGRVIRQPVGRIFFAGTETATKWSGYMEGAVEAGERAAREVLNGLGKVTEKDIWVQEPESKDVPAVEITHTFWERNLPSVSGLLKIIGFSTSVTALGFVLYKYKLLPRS
QUANTITY: Ki (nM)
All answers are understood in nM, so give the number only.

Give Ki for CCCN(C)CC(=O)Nc1ccc(/C=C2\Cc3cc(OC)ccc3C2=O)cc1 [D28]
107

---

- STUDY TARGET: BChE (Homo sapiens, UniProt P06276)
- Sequence (P06276 29-602): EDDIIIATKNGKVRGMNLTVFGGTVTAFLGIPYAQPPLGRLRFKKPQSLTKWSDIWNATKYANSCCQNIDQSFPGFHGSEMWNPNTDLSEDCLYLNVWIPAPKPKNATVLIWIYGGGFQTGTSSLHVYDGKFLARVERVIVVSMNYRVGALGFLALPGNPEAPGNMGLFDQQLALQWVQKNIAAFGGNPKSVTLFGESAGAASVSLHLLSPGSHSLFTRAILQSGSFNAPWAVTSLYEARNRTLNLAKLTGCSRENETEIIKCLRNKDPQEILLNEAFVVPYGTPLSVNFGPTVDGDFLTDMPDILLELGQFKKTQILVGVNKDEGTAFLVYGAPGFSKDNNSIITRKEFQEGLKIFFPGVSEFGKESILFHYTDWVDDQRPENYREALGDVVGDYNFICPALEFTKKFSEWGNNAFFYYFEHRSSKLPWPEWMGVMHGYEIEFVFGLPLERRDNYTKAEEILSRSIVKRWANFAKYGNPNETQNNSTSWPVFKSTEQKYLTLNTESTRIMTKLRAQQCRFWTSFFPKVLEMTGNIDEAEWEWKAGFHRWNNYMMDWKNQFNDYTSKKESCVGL
- METHOD: biochemical
- ASSAY CONTEXT: 10^–9 M
Some molecules, each annotated with its measured inhibition at 0.001 µM.
All answers are understood in %, so give the number only.

As a guide, the following entries are already answered.
1) COc1ccc2c(c1)C/C(=C\c1ccc(NC(=O)CN(C)CCCN(C)C)cc1)C2=O: 18.5
2) COc1ccc2c(c1)C(=O)/C(=C/c1ccc(NC(=O)CN(C)CCN(C)C)cc1)C2: 18
3) COc1ccc2c(c1)C(=O)/C(=C/c1ccc(NC(=O)CN(C)CCCN(C)C)cc1)C2: 18.4
4) COc1cc2c(cc1OC)C(=O)/C(=C/c1ccc(NC(=O)CN(C)CCCN(C)C)cc1)C2: 21.6

Tell me inhibition at 0.001 µM of COc1ccc2c(c1)C/C(=C\c1ccc(NC(=O)CN(C)CCN(C)C)cc1)C2=O when tested on BChE (Homo sapiens, UniProt P06276).
20.5

---

- STUDY TARGET: BChE (Homo sapiens)
- METHOD: biochemical
- ASSAY CONTEXT: 10^–8 M
Short version: inhibition at 0.01 µM at least 30% is Condition met, less is Condition not met.

1. COc1ccc2c(c1)C(=O)/C(=C/c1ccc(NC(=O)CN(C)CCN(C)C)cc1)C2 [D35]: Condition met
2. COc1cc2c(cc1OC)C(=O)/C(=C/c1ccc(NC(=O)CN(C)CCCN(C)C)cc1)C2 [D39]: Condition met
3. COc1ccc2c(c1)C/C(=C\c1ccc(NC(=O)CN(C)CCN(C)C)cc1)C2=O [D34]: Condition met
4. COc1ccc2c(c1)C(=O)/C(=C/c1ccc(NC(=O)CN(C)CCCN(C)C)cc1)C2 [D38]: Condition not met

Next item in the queue.
Could you verify whether the entry COc1ccc2c(c1)C/C(=C\c1ccc(NC(=O)CN(C)CCCN(C)C)cc1)C2=O [D37] shows inhibition at 0.01 µM of no less than 30%?
Condition met

---

- STUDY TARGET: AChE (Homo sapiens, UniProt P22303)
- Sequence (P22303 32-614): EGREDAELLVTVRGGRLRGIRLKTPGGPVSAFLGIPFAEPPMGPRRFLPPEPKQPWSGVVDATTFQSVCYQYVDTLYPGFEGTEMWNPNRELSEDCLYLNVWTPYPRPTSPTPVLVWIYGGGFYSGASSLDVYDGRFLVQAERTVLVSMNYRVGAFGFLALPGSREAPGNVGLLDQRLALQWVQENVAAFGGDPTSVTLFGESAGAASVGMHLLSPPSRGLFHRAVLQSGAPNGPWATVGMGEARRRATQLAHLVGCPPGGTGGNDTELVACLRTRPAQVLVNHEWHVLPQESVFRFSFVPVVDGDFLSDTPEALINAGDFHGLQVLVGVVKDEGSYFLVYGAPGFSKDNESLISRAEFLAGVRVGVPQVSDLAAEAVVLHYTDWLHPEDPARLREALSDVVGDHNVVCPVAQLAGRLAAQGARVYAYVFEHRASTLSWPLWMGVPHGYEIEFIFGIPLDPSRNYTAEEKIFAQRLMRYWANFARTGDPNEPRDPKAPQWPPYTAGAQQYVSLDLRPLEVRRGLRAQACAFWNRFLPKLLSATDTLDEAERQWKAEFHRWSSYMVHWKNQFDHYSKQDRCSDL
- METHOD: biochemical
- ASSAY CONTEXT: 10^–6 M
QUANTITY: inhibition at 1 µM (%)
All answers are understood in %, so give the number only.

As a guide, the following entries are already answered.
1) COc1ccc2c(c1)C/C(=C\c1ccc(NC(=O)CN3CCN(CCN(C)C)CC3)cc1)C2=O: 70.4
2) COc1cc2c(cc1OC)C(=O)/C(=C/c1ccc(NC(=O)CN3CCN(CCCN(C)C)CC3)cc1)C2: 73.3
3) CCCN(C)CC(=O)Nc1ccc(/C=C2\Cc3ccc(OC)cc3C2=O)cc1: 88.3
4) COc1ccc2c(c1)C/C(=C\c1ccc(NC(=O)CN(C)CCCN(C)C)cc1)C2=O: 75.1

Give inhibition at 1 µM for COc1ccc2c(c1)C(=O)/C(=C/c1ccc(NC(=O)CN3CCN(CCCN(C)C)CC3)cc1)C2
60.6

Give inhibition at 1 µM for COc1ccc2c(c1)C(=O)/C(=C/c1ccc(NC(=O)CN(C)CCN(C)C)cc1)C2
61.8

Give inhibition at 1 µM for COc1ccc2c(c1)C(=O)/C(=C/c1ccc(NC(=O)CN3CCN(CCCO)CC3)cc1)C2
77.2

Give inhibition at 1 µM for COc1ccc2c(c1)C/C(=C\c1ccc(NC(=O)CN(C)CCN(C)C)cc1)C2=O
63.4

---

- STUDY TARGET: MAO-B (Homo sapiens, UniProt P27338)
- Sequence (P27338 whole entry): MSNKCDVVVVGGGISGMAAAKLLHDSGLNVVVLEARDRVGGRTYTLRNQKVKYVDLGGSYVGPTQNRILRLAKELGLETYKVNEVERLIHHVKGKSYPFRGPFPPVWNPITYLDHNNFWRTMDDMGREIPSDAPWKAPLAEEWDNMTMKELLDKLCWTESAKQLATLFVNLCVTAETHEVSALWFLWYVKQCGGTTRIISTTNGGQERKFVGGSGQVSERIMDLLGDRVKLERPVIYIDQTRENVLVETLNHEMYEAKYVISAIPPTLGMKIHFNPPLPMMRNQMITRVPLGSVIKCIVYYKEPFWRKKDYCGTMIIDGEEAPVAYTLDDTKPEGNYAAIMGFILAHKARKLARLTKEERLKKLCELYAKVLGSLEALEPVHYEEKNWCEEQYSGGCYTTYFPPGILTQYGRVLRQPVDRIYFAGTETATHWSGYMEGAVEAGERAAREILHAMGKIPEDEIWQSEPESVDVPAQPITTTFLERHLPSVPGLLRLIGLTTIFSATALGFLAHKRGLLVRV
- METHOD: In vitro MAO-B inhibition assay (fluorometric)
- Assay type: biochemical
- ASSAY CONTEXT: 10^–3 M
QUANTITY: inhibition at 1000 µM (%)
All answers are understood in %, so give the number only.

1. C=CCN1CCN(CC(=O)Nc2ccc(/C=C3\Cc4ccc(OC)cc4C3=O)cc2)CC1: 78.6
2. CCCN(C)CC(=O)Nc1ccc(/C=C2\Cc3ccc(OC)cc3C2=O)cc1: 91.8
3. COc1ccc2c(c1)C/C(=C\c1ccc(NC(=O)CN3CCN(CCO)CC3)cc1)C2=O: 75.6
4. COc1ccc2c(c1)C/C(=C\c1ccc(NC(=O)CN(C)CCN(C)C)cc1)C2=O: 78.5
5. COc1ccc2c(c1)C/C(=C\c1ccc(NC(=O)CN3CCN(CCN(C)C)CC3)cc1)C2=O: 85.3
6. COc1ccc2c(c1)C/C(=C\c1ccc(NC(=O)CN3CCN(CCCN(C)C)CC3)cc1)C2=O: 79

Now let's try a different one.
Give inhibition at 1000 µM for COc1ccc2c(c1)C(=O)/C(=C/c1ccc(NC(=O)CN(C)CCN(C)C)cc1)C2
90.7

---

- STUDY TARGET: BChE (Homo sapiens, UniProt P06276)
- METHOD: biochemical
- ASSAY CONTEXT: 10^–5 M
QUANTITY: inhibition at 10 µM (%)
All answers are understood in %, so give the number only.

As a guide, the following entries are already answered.
1) COc1cc2c(cc1OC)C(=O)/C(=C/c1ccc(NC(=O)CN(C)CCCN(C)C)cc1)C2 [D39]: 81.4
2) COc1ccc2c(c1)C/C(=C\c1ccc(NC(=O)CN(C)CCN(C)C)cc1)C2=O [D34]: 76.3

Give inhibition at 10 µM for COc1ccc2c(c1)C/C(=C\c1ccc(NC(=O)CN(C)CCCN(C)C)cc1)C2=O [D37]
82.7

Give inhibition at 10 µM for COc1ccc2c(c1)C(=O)/C(=C/c1ccc(NC(=O)CN(C)CCCN(C)C)cc1)C2 [D38]
85.4

Give inhibition at 10 µM for COc1ccc2c(c1)C(=O)/C(=C/c1ccc(NC(=O)CN(C)CCN(C)C)cc1)C2 [D35]
74.6
